// reported Euclidean distance for each item listed
test system: 786-O; assay: Euclidean distance of Cell Painting phenotypic profile (signed KS, 77 features) to DMSO centroid (dimensionless distance); 5 or 10 uM (library dependent); higher = stronger phenotypic change vs DMSO (phenoactivity); conditions: 48 h
Where a name gives a salt, the structure may show the parent alone.
measured_quantity: Euclidean distance

# compound, measured_quantity, data_value
rows = [
    ("COc1cccc2c1C(=O)c1c(O)c3c(c(O)c1C2=O)C[C@@](O)(C(=O)CO)C[C@@H]3O[C@H]1C[C@H](N)[C@H](O)[C@H](C)O1", "Euclidean distance", 4.79),
    ("Nc1[nH]cnc2ncnc1-2 [Adenine sulfate]", "Euclidean distance", 1.69),
    ("COc1cccc2c1C(=O)c1c(O)c3c(c(O)c1C2=O)C[C@@](O)(C(=O)CO)C[C@@H]3O[C@H]1C[C@H](N)[C@H](O[C@@H]2CCCCO2)[C@H](C)O1", "Euclidean distance", 3.6),
]
